Provenance of the data: patent US6172074A

# Test system: PDE4
# Method summary: Inhibition of the PDE4 activity (Bauer and Schwabe method, adapted to microtiter plates)
# Format: biochemical
# Condition summary: inhibitory concentration as -log IC50 (mol/l)
Counter-ions that a name gives are not always drawn.
Property name: -log IC50
Number only, no unit.

Worked cases, answers included:
| Compound | -log IC50 |
| --- | --- |
| COc1ccc(-c2nc3cnccc3o2)c2c1OC1(CCCC1)C2 | 8.76 |
| COc1ccc(-c2nc3cccnc3o2)c2c1OC1(CCCC1)C2 | 6.61 |
| COc1ccc(-c2nc3ncccc3[nH]2)c2c1OC1(CCCCC1)C2 [Compound 6, dihydrochloride hemihydrate] | 6.90 |
| COc1ccc(-c2nc3cnccc3[nH]2)c2c1OC1(CCCCC1)C2 | 7.52 |
| COc1ccc(-c2nc3c(Cl)nccc3[nH]2)c2c1OC1(CCCC1)C2 | 7.98 |
| COc1ccc(-c2nc3ncccc3o2)c2c1OC1(CCCC1)C2 | 7.93 |

Which -log IC50 value is on record for `COc1ccc(-c2nc3cnccc3[nH]2)c2c1OC1(CCCC1)C2` ?
8.08
